tgt: Cytochrome P450 1A2 (Homo sapiens, UniProt P05177)
Sequence (P05177 whole entry): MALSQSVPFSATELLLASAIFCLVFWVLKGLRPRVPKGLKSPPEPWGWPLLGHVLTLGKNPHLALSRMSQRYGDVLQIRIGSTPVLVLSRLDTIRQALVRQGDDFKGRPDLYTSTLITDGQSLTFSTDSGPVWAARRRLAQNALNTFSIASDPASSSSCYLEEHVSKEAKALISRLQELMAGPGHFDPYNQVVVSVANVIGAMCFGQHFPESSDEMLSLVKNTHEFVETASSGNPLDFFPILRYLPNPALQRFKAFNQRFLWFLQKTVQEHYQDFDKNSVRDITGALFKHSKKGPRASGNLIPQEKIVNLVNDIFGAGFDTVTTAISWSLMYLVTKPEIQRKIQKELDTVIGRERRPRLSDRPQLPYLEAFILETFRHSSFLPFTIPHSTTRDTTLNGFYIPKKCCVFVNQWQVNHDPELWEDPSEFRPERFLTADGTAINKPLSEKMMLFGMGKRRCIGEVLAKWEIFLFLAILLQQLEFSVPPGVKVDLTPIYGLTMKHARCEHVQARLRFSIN
metric: IC50

Given the entry O=C(O)C1CN(Cc2ccc(-c3noc(-c4onc(-c5ccccc5)c4C(F)(F)F)n3)cc2)C1 , report its measured IC50.
> 40 µM

###

test-name: Permeability across apical to basolateral side in human Caco2 cells
Assay type: ADME, cell-based
applied-conditions: Caco-2, read-out: permeability
metric: Papp A→B (×10⁻⁶ cm/s)
Hi! Could you send only the number? It should be in ×10⁻⁶ cm/s, unit omitted.

Given the entry O=C(O)C1CN(Cc2ccc(-c3noc(-c4onc(-c5ccccc5)c4C(F)(F)F)n3)cc2)C1 , report its measured Papp A→B.
10.4

###

test-name: Plasma concentration in Lewis rat at 0.03 mg/kg, po measured at 24 hrs
Format: ADME, organism-based
metric: concentration at 24 h (nM)
Hi! Could you send only the number? It should be in nM, unit omitted.

Given the entry O=C(O)C1CN(Cc2ccc(-c3noc(-c4onc(-c5ccccc5)c4C(F)(F)F)n3)cc2)C1 , report its measured concentration at 24 h.
4

###

test-name: Plasma protein binding in rat
Type: ADME, cell-free
applied-conditions: read-out: PPB (converted)
metric: fraction unbound

Given the entry O=C(O)C1CN(Cc2ccc(-c3noc(-c4onc(-c5ccccc5)c4C(F)(F)F)n3)cc2)C1 , report its measured fraction unbound.
0.006

###

test-name: Plasma concentration in Lewis rat at 1 mg/kg, po measured at 24 hrs
Assay type: ADME, organism-based
Provide the reported concentration at 24 h of each item.
Hi! Could you send only the number? It should be in nM, unit omitted.

Given the entry CCCc1c(-c2ccccc2)noc1-c1nc(-c2ccc(CN3CC(C(=O)O)C3)cc2)no1 , report its measured concentration at 24 h.
11

Given the entry CC(C)Cc1c(-c2nc(-c3ccc(CN4CC(C(=O)O)C4)cc3)no2)noc1-c1ccccc1 , report its measured concentration at 24 h.
30

Given the entry Cc1c(-c2nc(-c3ccc(CN4CC(C(=O)O)C4)cc3)no2)noc1-c1ccccc1 , report its measured concentration at 24 h.
6.4

Given the entry CC(F)(F)c1c(-c2nc(-c3ccc(CN4CC(C(=O)O)C4)cc3)no2)noc1-c1ccccc1 , report its measured concentration at 24 h.
100

Given the entry CCCc1c(-c2nc(-c3ccc(CN4CC(C(=O)O)C4)cc3)no2)noc1-c1ccccc1 , report its measured concentration at 24 h.
7.9

###

test-name: Plasma concentration in Lewis rat at 0.03 mg/kg, po measured at 4 hrs
Assay type: ADME, organism-based
metric: concentration at 4 h (nM)
Hi! Could you send only the number? It should be in nM, unit omitted.

Given the entry O=C(O)C1CN(Cc2ccc(-c3noc(-c4onc(-c5ccccc5)c4C(F)(F)F)n3)cc2)C1 , report its measured concentration at 4 h.
20

###

test-name: AUC in rat at 5 mg/kg, po
Format: ADME, organism-based
applied-conditions: in vivo
metric: AUC (µM·h)
Hi! Could you send only the number? It should be in µM·h, unit omitted.

Given the entry O=C(O)C1CN(Cc2ccc(-c3noc(-c4onc(-c5ccccc5)c4C(F)(F)F)n3)cc2)C1 , report its measured AUC.
44

###

test-name: Volume of distribution at steady state in rat at 2 mg/kg, iv
Assay type: ADME, organism-based
applied-conditions: in vivo, read-out: Vdss
metric: Vd

Given the entry O=C(O)C1CN(Cc2ccc(-c3noc(-c4onc(-c5ccccc5)c4C(F)(F)F)n3)cc2)C1 , report its measured Vd.
1.4 L/kg
